Assay: Purity and stability test (content by HPLC after sealed storage)
Assay type: physicochemical
Settings: HPLC content before storage
result.type: Content of the intial sample
Please format your answer as a value with the unit trailing.

IN: Assign Content of the intial sample to the following record: CCC(C)CC(C)CCCCCCCCC(=O)NC1CC(O)[C@@H](O)NC(=O)[C@H]2[C@@H](O)CCN2C(=O)[C@H](C(O)CC(N)=O)NC(=O)C(C(O)C(O)c2ccc(O)cc2)NC(=O)[C@@H]2C[C@@H](O)CN2C(=O)[C@H](C(C)O)NC1=O (some centres unmarked) [Example 1]
OUT: 96.1%

More entries:
IN: Assign Content of the intial sample to the following record: CCC(C)CC(C)CCCCCCCCC(=O)NC1CC(O)[C@@H](O)NC(=O)[C@H]2[C@@H](O)CCN2C(=O)[C@H](C(O)CC(N)=O)NC(=O)C(C(O)C(O)c2ccc(O)cc2)NC(=O)[C@@H]2C[C@@H](O)CN2C(=O)[C@H](C(C)O)NC1=O (some centres unmarked) [Example 4]
OUT: 99.8%

IN: Assign Content of the intial sample to the following record: CCC(C)CC(C)CCCCCCCCC(=O)NC1CC(O)[C@@H](O)NC(=O)[C@H]2[C@@H](O)CCN2C(=O)[C@H](C(O)CC(N)=O)NC(=O)C(C(O)C(O)c2ccc(O)cc2)NC(=O)[C@@H]2C[C@@H](O)CN2C(=O)[C@H](C(C)O)NC1=O (some centres unmarked) [Comparative example, reference compound]
OUT: 97.7%

IN: Assign Content of the intial sample to the following record: CCC(C)CC(C)CCCCCCCCC(=O)NC1CC(O)[C@@H](O)NC(=O)[C@H]2[C@@H](O)CCN2C(=O)[C@H](C(O)CC(N)=O)NC(=O)C(C(O)C(O)c2ccc(O)cc2)NC(=O)[C@@H]2C[C@@H](O)CN2C(=O)[C@H](C(C)O)NC1=O (some centres unmarked) [Example 3]
OUT: 99.8%

IN: Assign Content of the intial sample to the following record: CCC(C)CC(C)CCCCCCCCC(=O)NC1CC(O)[C@@H](O)NC(=O)[C@H]2[C@@H](O)CCN2C(=O)[C@H](C(O)CC(N)=O)NC(=O)C(C(O)C(O)c2ccc(O)cc2)NC(=O)[C@@H]2C[C@@H](O)CN2C(=O)[C@H](C(C)O)NC1=O (some centres unmarked) [Example 2]
OUT: 99.8%
